Origin of values: the DeepSol protein solubility set

Test: soluble on expression in E. coli; label from the status in PepcDB or PDB records
readout-name: soluble on expression in E. coli

Would you please look over these solved cases?
{"columns": ["sequence-code", "soluble on expression in E. coli"],
 "data": [
  ["MLEKIYSVLGTGSCLVKDGEIIESYLLSDEEVKLIEKIAKVIPFLPEKFKVGFFEHEGGRIIAIKHGEVFICFPARSDNVMSELRKVEVEVYDKILSP", "not soluble"],
  ["MSLNLKKAELHVHLEGTISPELAKKLAKRNQLTLPNGLIAPDEKSYLSRDFLDFLKVYDTLASVIKNPQDYYDITFDYLKSNAQEHAIYIEMMYSPDHAEQSSGIPSKEHLAAIQQAIDDAKSQFDIVGRIIITAVRHFGVEACERVAKQASIDKFPCVTGFGLGGDEAKFPPQLFTKAYQIAADSGLECTVHAGEFDSAKGMEEAMKTLPIKRIGHGVRVIDSPDIMAMVKDQGIALEVCPTSNIFLGLFKDMNSHPFPKLYEAGIKVSINSDDPPFMSTTLAQEYKRVQKAYGYNNDTMNNITRMAIEAAFVDEKTRKELLTKLEQEGHHHHHH", "soluble"],
  ["MASGKRKGLSFDDKKTRLLELFNETCDFYTLKELEKIAPKLKGIITQSVKDVLQSLVDDDLVNSDKCGVQTIYWCLPSEAVAKRQRRLDALQQQLAEKRQKLTALQRQLVQVQAGREDSVERTAVLERLAACEAAWRERQRTLESYLECDPDVLAQRETETKTLIEQANRWTDNLYVIRSYVQRNLGVDLDLFDQQFELKPALQYLE", "not soluble"],
  ["MANRTEKAAKTVKGTNPQFLVEKIIRQRIYDSMYWKEHCFALTAELVVDKGMDLRYIGGIYAGNIKPTPFLCLALKMLQIQPDKDIVLEFIQQEEFKYIRALGAMYLRLTFDSTEIYKYLEPLYNDFRKLRYMNKMGRFEAIYMDDFIDNLLREDRYCDIQLPRLQKRWALEEVDMLPSYKSLLDGDLVAMSDSDSEEEEVTKKEKPRLTSRRRSRSRDRERDVGDRREVREREKLKERRERGDDEPGPSSSGSGRRDDRDDRRRDRDRSRDRDRRDRRDDDRRDKKKESRRGGADNDEEREIAEANALRAKLGLAPLER", "not soluble"],
  ["MRSSNNRHEGEEAMNRTQQWMEDLQKNISDLIARSPAADVERNVRAMMTQTFARLDLITREEFEVQVDLLARARTRVDQLSAQVQQLEARLAALEAGKPQA", "not soluble"],
  ["MPNRHGSPRSSTRWAGLAIIALACLLSACSSTPTRSLTSRDTSGQRTHGAAINDPSAGLEEISIEAMALVGTPYRYGGNTPDSGFDCSGLVRYVVQRAASVNLPRTAAEMGTRGFALERRDVASGDLVFFNTTGRPNSHVGIYVGQNRFVHAPATGGTVRLEDMSKRYWASRYMGARRVVAVSNLPDLPASPAAATQSIAAGAAAPATAPAHANDDDPLGTLARARGTESSPLMSTRNAAPVVVPPADDDPIARFATQ", "soluble"],
  ["MGSDKIHHHHHHMKVLVVDDDKLARKGLISIMDWKKYGFEVVGDVQNGRKALEFLKDNEVDIVFTDIDMPEIDGIELMKMCKKEYPEVKFVVFSMYEDFRYAQSALRLGALDYISKISFEGDECDRILELVERKYKENHSQKETRNEDSELIKRLEKAWMNTRWIFNDSEFNRLYELTRGVELRTAERVFIKSFHSLQKLTGEELEFPSLSSVDSMLEWVKQWKENLYQTCLQTDKTKDIYMFARVILYTDEHIEENLKSEEAAAQIGMSRSYFSTRFKEMTGDTFHNYVISRKMYAAAQKMAKGTENITQIASNLGYDNFYYFTKVFSKEYGCMPTEYVGRIKKCSI", "not soluble"],
  ["MGSDKIHHHHHHMKELKIIFIPGWGMEEGVWTLVLPYFKEYSVQCINWRNVKEQSEFAGRIIDVAKDENVILVGWSLGALAAVQAHKKIQTKGIVLIGGTPKFTNTSDYTSGWNALHVERLKKNVARKKEDTLKRFYENMFTKDELKENTSFEEIALNFKGDSIQSLQLGLDYLIETDMRNELIDVKVPLLLLHGEQDVICPLSAAHSMTENANAKLKVVSEAGHALCVTNFEYCANEIIQFVEGIRHDQQNVTTKTI", "not soluble"]
]}

The sequence listed as MGSDKIHHHHHHMTMDAATAVSDQGKQDLPAGDGATLSLKDRIARDLGQRILAGIYAQHAVLPTEAELCVIYGASRTALRDALLTLSAKGLIEARKRAGTRVRVSSEWNRLDAQVLEWMRDIEPDLDFVRGLIEARLVIEPAAAQLAAKMATSGDLAVIEAAYEAMRIAPEDDLAACLDADVRFHTAILRASRNPVFANLGNMLAAALSFSFRLTTSATANYQQTLSAHGDVLEAIRMRRVDDAHDQMKALIGIASNDLLAVARKGRHQQPVPTASADPI shows soluble on expression in E. coli equal to not soluble

The reported soluble on expression in E. coli of the sequence MGHHHHHHGGHMSLQDFKKLPTVLTAEELIDKIFRRAARVEGRNPKEKALNKLATISNVSRDYFGKIIGAHPSYENLPDFYREMVDVVVGIRQLKKSLVALKWADGMIQKVVSRAVREVKGGKNPSAVVKSAYGRVASIIEQIDDELRFLNDAKNRMREIPILQDLPTIVVAGYPNVGKSSLVARISTVKPEVASYPFTTKKINLGFAEFAGKRVQIIDTPGLLDRPLSKRNRIERRAVLALKHLADIILFVIDPTETCGYSLEKQLSLLEEIKGYFAKPTVEVYSKADMHDRRDRQAYSAVTGEGIDELIKEIEKMVKIHSQTSTVIAPSGQTSTQEQHSEGGS was soluble

Please fill in: soluble on expression in E. coli reported for MLASIVISSVHSIGTGALECRATHRGHRAGPYLSSSETRHRAAISGTVDMRETKQGLRHSGRSPSVASPKIDELIGRPQPDTIRLSRGRPVRNS = not soluble

For record MWINKVIKKRFETDIVQHVHIAKGTAMFQGVRLAVRCFVVDGVLIDTGAKSMENEFTSFFQQQDIDQVVITHFHEDHTGCAAFLQRSMGLPIYMNEPMIEYCRQKADYPLYRKIFWGKRDPFAAKPIGATFSSRNATWDVIPTPGHAIDHVVFLNRETGQLFSGDLYCQEKTKVILREEDIPTIIASLQHVLTYDFGDVFCAHAGYLPNGREALQRKLDYLLELQGTIIDLYEKGTPPKQIQALLFPKKYPIIFFSGGEWDSLHIVRSVIRDYEAKQASLEHHHHHH the listed soluble on expression in E. coli is soluble

====

Assay: soluble on expression in E. coli; label from the status in PepcDB or PDB records

{"columns": ["sequence-code", "soluble on expression in E. coli"],
 "data": [
  ["MRGIVTIDGPSASGKSSVARRVAAALGVPYLSSGLLYRAAAFLALRAGVDPGDEEGLLALLEGLGVRLLAQAEGNRVLADGEDLTSFLHTPEVDRVVSAVARLPGVRAWVNRRLKEVPPPFVAEGRDMGTAVFPEAAHKFYLTASPEVRAWRRARERPQAYEEVLRDLLRRDERDKAQSAPAPDALVLDTGGMTLDEVVAWVLAHIRR", "soluble"],
  ["MAHHHHHHMGYTRERTNRHFFVARANAFFSRLPIARVQRSLAMEAVREGRMRPWKYTKEQILGAPVTCNFEYNPRPVRLIGTVMDAHTEETSIKGGLKVYARNEETNMMLWIPPGNPKLRHEVTSTKGSFQHYLDERDKWDEAWITGRARMK", "not soluble"],
  ["MKLSDMQLFRGLEEDDISSLLSCLNSVKRNYKKGEVILSEGSIIENIGIVLSGMAMISCNEIWGNTSILGSVAPGSVFAEVYACIPGQPMLVTVSAVEDTSVLFMNVGRVLTTCTNACPFHTNLARNLLTVCAHKSLQLSQRILHTSSKSIRGRLMSYFSECAKHAGSNSFLIPYNRQQLADYLNVDRSTMCNELSKMQKDGMIEYKKNRILLKD", "not soluble"],
  ["MASAVGEKMLDDFEGVLNWGSYSGEGAKVSTKIVSGKTGNGMEVSYTGTTDGYWGTVYSLPDGDWSKWLKISFDIKSVDGSANEIRFMIAEKSINGVGDGEHWVYSITPDSSWKTIEIPFSSFRRRLDYQPPGQDMSGTLDLDNIDSIHFMYANNKSGKFVVDNIKLIGALEHHHHHH", "soluble"]
]}

====

Assay: soluble on expression in E. coli; label from the status in PepcDB or PDB records
readout-name: soluble on expression in E. coli

{"columns": ["sequence-code", "readout-name", "reported-value"],
 "data": [
  ["MGSDKIHHHHHHMERHNAIPIYDAELPLTSGVIPLVAGLTMPGCLRDASPDAWGRRVILNKRFGKTALQIDPGSIDELSYLIESGSDRIGALDFQRSPTEYIPRLASGAPLEELIKAAELVEKGVPLTPELAQALQHGTSIGGARPKALVQSDNHKFIAKFSTSTDLYSVVKAEFIAMKLALMAGLHVAPVNLLQVAGKDVLMVERFDRVAAPAGWQRKGIVSALTMLQLDEMMARYASYHDLANLVRQRFMRAPSTLRELFSRLAFNILIGNTDDHARNHAAFWDGRMLQLTPAYDICPQSRTGRTASQAMQISDGQNSSQITTCLKAAPHFLLNEAEAGLIIEGQIRCIEENWPTICEEADLSEIDRNLMWRNQVLNPFAFEGLEGSSLERLAKKYR", "soluble on expression in E. coli", "not soluble"],
  ["MNFRPIAGIDVGKFFSEMAILSPSNEVIARMKIRHDSSTDVERAVELLKKTEKDFDSRPFVVMESTGHYHKILFHSLYKAGFEVSVINPIQTDSIKNIGIRKVKNDKVDARKIALLYRFQELKIQYPERYGCWTLARNKACEVWYNRKGLAAALR", "soluble on expression in E. coli", "not soluble"]
]}
